test system: A549 lung carcinoma cell line bearing KRas^G12S oncogenic mutation; assay: Cell proliferation inhibition (MTS), A549; type: cell-based; details: Homo sapiens, 72 h incubation, MTS, compounds 1-53, median from experimental results
readout_label: IC50 (nM)

I = COc1cc2c(cc1OCCc1cccc(NC(C)=O)c1)C(c1ccc(C)cc1C)N(C(=O)NCc1cocn1)CC2 (stereo not drawn)
II = Cc1ccc(C2c3cc(OCCc4cccc(O)c4)c(O)cc3CCN2C(=O)NCc2cocn2)c(C)c1 (stereo not drawn)
Exercise: Lab note: record which item had the higher IC50, I or II . Record your answer as the label of the chosen record.
Solution: I

A = Cc1ccc(C2c3cc(OCCc4cccnc4)c(F)cc3CCN2C(=O)NCc2cocn2)c(C)c1 (stereo not drawn)
B = Cc1ccc(C2c3cc(OCCc4cccc(O)c4)c(C(N)=O)cc3CCN2C(=O)NCc2cocn2)c(C)c1 (stereo not drawn)
Exercise: Which gives the smaller IC50 number: A or B ? Your answer should be the label attached to the chosen record.
Solution: B

----------
target: KRas (Homo sapiens, UniProt P01116)
Sequence (P01116 1-188 isoform P01116-2): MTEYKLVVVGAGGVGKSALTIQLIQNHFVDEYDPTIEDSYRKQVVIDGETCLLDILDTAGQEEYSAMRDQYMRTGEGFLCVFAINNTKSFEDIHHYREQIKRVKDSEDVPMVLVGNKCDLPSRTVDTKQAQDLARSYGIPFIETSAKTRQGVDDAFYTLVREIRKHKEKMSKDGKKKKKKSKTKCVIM
readout_label: Kd (nM)
Report as a plain number; the unit nM is understood.

Record summary for COc1cc2c(cc1OCCc1cccc(O)c1)C(c1ccc(C)cc1C)N(C(=O)NCc1cocn1)CC2 (stereo not shown) [Compound 18] : reported Kd = 8.8

----------
Test system: PANC-1 epithelioid carcinoma of the pancreas cell line bearing KRas^G12D oncogenic mutation
Assay: Cell proliferation inhibition (MTS), PANC-1
Format: cell-based
Conditions: Homo sapiens, 72 h incubation, MTS, compounds 1-53, median from experimental results
Procedure: • Cell line #1: A549. […] Cell lines were cultured in DMEM or RPMI-1640 supplemented with FBS 10%. […] After incubation, proliferation was quantified using CellTiter 96® Aqueous Non-Radioactive Cell Proliferation Assay-MTS (Promega #G5421) following manufacturer instructions. Amount of 490 nm absorbance is directly proportional to the number of living cells. Absorbance was recorded with a BMG Fluostar Optima Microplate Reader and normalized to control with vehicle.
readout_label: IC50 (nM)

{"molecule": "COc1cc2c(cc1OCCc1cccc(O)c1)C(c1ccc(C)cc1C)N(C(=O)NCc1cncs1)CC2 (centres unmarked)", "readout_label": "IC50", "unit_abbreviation": "nM", "observed_value": 570}
{"molecule": "COc1cc2c(cc1OCCc1cccc(C(=O)O)c1)C(c1ccc(C)cc1C)N(C(=O)NCc1cocn1)CC2 (centres unmarked)", "readout_label": "IC50", "unit_abbreviation": "nM", "observed_value": 1830}
{"molecule": "CC(=O)Cc1cc2c(cc1OCCc1cccnc1)C(c1ccc(C)cc1C)N(C(=O)NCc1cocn1)CC2 (centres unmarked)", "readout_label": "IC50", "unit_abbreviation": "nM", "observed_value": 810}
{"molecule": "Cc1ccc(C2c3cc(OCCc4cccnc4)c(C(=O)O)cc3CCN2C(=O)NCc2cocn2)c(C)c1 (centres unmarked)", "readout_label": "IC50", "unit_abbreviation": "nM", "observed_value": 430}
{"molecule": "COc1cc2c(cc1OCCc1ccccc1)C(c1ccc(C)cc1C)N(C(=O)NCc1cocn1)CC2 (centres unmarked)", "readout_label": "IC50", "unit_abbreviation": "nM", "observed_value": 600}
{"molecule": "Cc1ccc(C2c3cc(OCCc4cccnc4)c(Cl)cc3CCN2C(=O)NCc2cocn2)c(C)c1 (centres unmarked)", "readout_label": "IC50", "unit_abbreviation": "nM", "observed_value": 420}
{"molecule": "CCNC(=O)N1CCc2cc(OC)c(OCCc3cnccn3)cc2C1c1ccc(C)cc1C (centres unmarked)", "readout_label": "IC50", "unit_abbreviation": "nM", "observed_value": 500}
{"molecule": "CC(=O)Nc1cc2c(cc1OCCc1cccnc1)C(c1ccc(C)cc1C)N(C(=O)NCc1cocn1)CC2 (centres unmarked)", "readout_label": "IC50", "unit_abbreviation": "nM", "observed_value": 740}

P = COc1cc2c(cc1OCCc1cccc(O)c1)C(c1c(C)cc(C)cc1O)N(CCC(C)=O)CC2 (centres unmarked)
Q = Cc1ccc(C2c3cc(OCCc4cccc(F)c4)c(O)cc3CCN2C(=O)NCc2cocn2)c(C)c1 (centres unmarked)
R = CC(=O)c1cc2c(cc1OCCc1cccnc1)C(c1ccc(C)cc1C)N(C(=O)NCc1cocn1)CC2 (centres unmarked)
Exercise: List items by IC50 in falling order. I would appreciate it if you listed the labels in the requested order.
Solution: P, Q, R

a = COc1ccc(C2c3cc(OCCc4cccc(O)c4)c(OC)cc3CCN2CCC(C)=O)c(C)c1 (centres unmarked)
b = Cc1ccc(C2c3cc(OCCc4cccnc4)c(F)cc3CCN2C(=O)NCc2cocn2)c(C)c1 (centres unmarked)
Exercise: Between a and b , which one shows the larger IC50 value? Select an item and report its label.
Solution: a
(a: 12300 nM, b: 1000 nM)

----------
tested on: PANC-1 epithelioid carcinoma of the pancreas cell line bearing KRas^G12D oncogenic mutation; experiment: Cell proliferation inhibition (MTS), PANC-1; type: cell-based; settings: Homo sapiens, 72 h incubation, MTS, compounds 1-53, median from experimental results
readout_label: IC50 (nM)

Example results:
{"compound": "Cc1ccc(C2c3cc(OCCc4cccnc4)c(C)cc3CCN2C(=O)NCc2cocn2)c(C)c1 (stereo not drawn)", "IC50, nM": 620}
{"compound": "COc1cc2c(cc1OCCc1cccc(NC(C)=O)c1)C(c1ccc(C)cc1C)N(C(=O)NCc1cocn1)CC2 (stereo not drawn)", "IC50, nM": 1500}
{"compound": "COc1cc2c(cc1OCCc1cccc(F)c1)C(c1ccc(C)cc1C)N(C(=O)NCc1cocn1)CC2 (stereo not drawn)", "IC50, nM": 810}
{"compound": "Cc1ccc(C2c3cc(OCCc4cccc(O)c4)c(C(N)=O)cc3CCN2C(=O)NCc2cocn2)c(C)c1 (stereo not drawn)", "IC50, nM": 660}
{"compound": "CCC(=O)CCN1CCc2cc(OC)c(OCC(=O)c3cccc(C(=O)OC)c3)cc2C1c1ccc(C)cc1Cl (stereo not drawn)", "IC50, nM": 29700}
{"compound": "COc1cc2c(cc1OCCc1ccc3c(c1)CCO3)C(c1ccc(C)cc1C)N(C(=O)NCc1ccncc1)CC2 (stereo not drawn)", "IC50, nM": 2130}
{"compound": "CCC(=O)CCN1CCc2cc(OC)c(OCCc3cccc(O)c3)cc2C1c1ccccc1C (stereo not drawn)", "IC50, nM": 24500}
{"compound": "COc1cc2c(cc1OCCc1cccc(C(N)=O)c1)C(c1ccc(C)cc1C)N(C(=O)NCc1cocn1)CC2 (stereo not drawn)", "IC50, nM": 1330}
{"compound": "COc1cc2c(cc1OCCc1cccnc1)C(c1ccc(C)cc1C)N(C(=O)NCc1cocn1)CC2 (stereo not drawn)", "IC50, nM": 490}
{"compound": "COc1cc2c(cc1OCCc1cccc(O)c1)C(c1ccc(C)cc1C)N(C(=O)NCc1ccccn1)CC2 (stereo not drawn)", "IC50, nM": 560}

A = Cc1ccc(C2c3cc(OCCc4cccc(O)c4)c(C(=O)O)cc3CCN2C(=O)NCc2cocn2)c(C)c1 (stereo not drawn)
B = COc1cc2c(cc1OCCc1cccc(OC(C)=O)c1)C(c1ccc(C)cc1C)N(C(=O)NCc1cocn1)CC2 (stereo not drawn)
C = CCNC(=O)N1CCc2cc(OC)c(OCCc3cccnc3)cc2C1c1ccc(C)cc1C (stereo not drawn)
D = CCC(=O)CCN1CCc2cc(OC)c(OCCc3cccc(O)c3)cc2C1c1ccc(C)cc1C (stereo not drawn)
E = CCC(=O)CCN1CCc2cc(OC)c(OCc3cccc(O)c3)cc2C1c1ccc(C)cc1Cl (stereo not drawn)
Exercise: Order these by IC50, descending, and give the full ranking. Answer by listing the labels in the requested order.
Solution: D, E, B, C, A

----------
test system: PANC-1 epithelioid carcinoma of the pancreas cell line bearing KRas^G12D oncogenic mutation; test: Cell proliferation inhibition (MTS), PANC-1; assay type: cell-based; conditions: Homo sapiens, compounds 54-63, based on estimations and/or preliminary experimental results
readout_label: IC50 (nM)

{"molecule": "COc1cc2c(cc1OCCc1cncc(C)n1)C(c1ccc(C)cc1C)N(C(=O)NCc1cocn1)CC2 (stereo not shown)", "observed_value": 700}
{"molecule": "COc1cnc(CCOc2cc3c(cc2OC)CCN(C(=O)NCc2cocn2)C3c2ccc(C)cc2C)cn1 (stereo not shown)", "observed_value": 700}
{"molecule": "COc1cc2c(cc1OCCc1ccc(C)nc1)C(c1ccc(C)cc1C)N(C(=O)NCc1cocn1)CC2 (stereo not shown)", "observed_value": 500}
{"molecule": "COc1ccc(CCOc2cc3c(cc2OC)CCN(C(=O)NCc2cocn2)C3c2ccc(C)cc2C)cn1 (stereo not shown)", "observed_value": 500}
{"molecule": "COc1cncc(CCOc2cc3c(cc2OC)CCN(C(=O)NCc2cocn2)C3c2ccc(C)cc2C)n1 (stereo not shown)", "observed_value": 700}
{"molecule": "COc1cc2c(cc1OCCc1cccnc1C)C(c1ccc(C)cc1C)N(C(=O)NCc1cocn1)CC2 (stereo not shown)", "observed_value": 500}
{"molecule": "COc1cc2c(cc1OCCc1nccnc1OC)C(c1ccc(C)cc1C)N(C(=O)NCc1cocn1)CC2 (stereo not shown)", "observed_value": 700}

Reference for the values: patent US11466012B2
